From: patent US20220282217A1

- targetDesc: T1, HLA class I molecule A02.01
- T1 construct: Purified MHC class I complex; also called HLA-A02:01
- assayText: pMHC-I dissociation half-life, 125I-b2m
- Source text: Briefly, synthetic genes encoding biotinylated MHC-I heavy and light chains are expressed in E. coli and purified from inclusion bodies using standard methods. […] Stability is defined as the length of time in hours it takes for half of the complexes to dissociate, as measured by scintillation counts.
endpointLabel: Stability (T1/2 (h))

> print(dat)
                                      binder         endpointlabel  assayvalue
 1      ALSASNSCFI (also called FRG1B, L52S)  Stability (T1/2 (h))         0.8
 2       IIEYCCYGDL (also called KIT, T670I)  Stability (T1/2 (h))           0
 3          FQMQPLSLM (also called JAK1(-1))  Stability (T1/2 (h))         0.3
 4  VMAYVMAGV (also called HER2, G776insYVMA)  Stability (T1/2 (h))        16.5
 5    YIIIEYCFYG (also called PDGFRa, T674I)  Stability (T1/2 (h))           0
 6       AFSGEYIPTV (also called RAC1, P29S)  Stability (T1/2 (h))           0
 7    IIEYCFYGDL (also called PDGFRa, T674I)  Stability (T1/2 (h))           0
 8       SLYIVGFYGA (also called MEK, P124L)  Stability (T1/2 (h))         0.4
 9        QVLHECNSL (also called MEK, P124L)  Stability (T1/2 (h))         0.5
10       LQEFDVQEAL (also called NDRG1: ERG)  Stability (T1/2 (h))           0
11        LLSTPPLSPS (also called MYC, P57S)  Stability (T1/2 (h))           0
12       IANLLGACTI (also called KIT, V654A)  Stability (T1/2 (h))           0
